# System: 422866-222-R5-J1-PDC spheroid viability
# procedureText: Anticancer human tumor 422866-222-R5-J1-PDC patient-derived pancreatic adenocarcinoma cell line growth inhibition [CLK]
# protocolConditions: second compound 10 µM; first compound 0.316 µM; stronger effect = lower value; spheroids with HUVEC and MSC

compound	targetSystem	viability, T/C (%)
COc1ccc([C@@H](O)c2cc(-c3ncnc4cc(N5CCOCC5)ccc34)c(F)cc2Cl)nn1 + CN1CCN(c2cc(C(=O)Nc3cc4cc(-c5cnn(C)c5)ccc4cn3)ccn2)CC1	422866-222-R5-J1-PDC spheroid viability	1.7
O=c1[nH]cc(F)c(=O)[nH]1 + CNC(=O)c1ccc(Nc2nc(OC3CCCC3)c3c(-c4ccc5nc(C)oc5c4)c[nH]c3n2)c(OC)c1	422866-222-R5-J1-PDC spheroid viability	70
CC1COCCN1c1cc(C2(S(C)(=N)=O)CC2)nc(-c2ccnc3[nH]ccc23)n1 (stereo not given) + CN1CCN(c2cc(C(=O)Nc3cc4cc(-c5cnn(C)c5)ccc4cn3)ccn2)CC1	422866-222-R5-J1-PDC spheroid viability	1.54
CCCS(=O)(=O)Nc1ccc(F)c(C(=O)c2c[nH]c3ncc(-c4ccc(Cl)cc4)cc23)c1F + CNC(=O)c1ccc(Nc2nc(OC3CCCC3)c3c(-c4ccc5nc(C)oc5c4)c[nH]c3n2)c(OC)c1	422866-222-R5-J1-PDC spheroid viability	74.8
COc1cccc2c1C(=O)c1c(O)c3c(c(O)c1C2=O)CC(O)(C(=O)CO)CC3OC1CC(N)C(O)C(C)O1 (stereo not given) + CNC(=O)c1ccc(Nc2nc(OC3CCCC3)c3c(-c4ccc5nc(C)oc5c4)c[nH]c3n2)c(OC)c1	422866-222-R5-J1-PDC spheroid viability	35.2

* * *

# Test system: 422866-222-R5-J1-PDC spheroid viability
# procedureText: Anticancer human tumor 422866-222-R5-J1-PDC cell line growth inhibition [CLK];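 also: spheroids exposed to agents for seven days before readout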
# protocolConditions: second compound 0.0316 µM; first compound 3.16 µM; stronger effect = lower value; spheroids with HUVEC and MSC
// viability, T/C lookup, one value per entry
readoutType: viability, T/C (%)

compound	measured
COc1ccc([C@@H](O)c2cc(-c3ncnc4cc(N5CCOCC5)ccc34)c(F)cc2Cl)nn1 + CNC(=O)c1ccc(Nc2nc(OC3CCCC3)c3c(-c4ccc5nc(C)oc5c4)c[nH]c3n2)c(OC)c1	45.1
CC1(C)CCC(CN2CCN(c3ccc(C(=O)NS(=O)(=O)c4ccc(NCC5CCOCC5)c([N+](=O)[O-])c4)c(Oc4cnc5[nH]ccc5c4)c3)CC2)=C(c2ccc(Cl)cc2)C1 + CNC(=O)c1ccc(Nc2nc(OC3CCCC3)c3c(-c4ccc5nc(C)oc5c4)c[nH]c3n2)c(OC)c1	131
CC(=O)O[C@H]1C(=O)[C@@]2(C)[C@H]([C@H](OC(=O)c3ccccc3)[C@]3(O)C[C@H](OC(=O)[C@H](O)[C@@H](NC(=O)c4ccccc4)c4ccccc4)C(C)=C1C3(C)C)[C@]1(OC(C)=O)CO[C@@H]1C[C@@H]2O + CN1CCN(c2cc(C(=O)Nc3cc4cc(-c5cnn(C)c5)ccc4cn3)ccn2)CC1	78.1
COc1cccc2c1C(=O)c1c(O)c3c(c(O)c1C2=O)CC(O)(C(=O)CO)CC3OC1CC(N)C(O)C(C)O1 (centres undefined) + CN1CCN(c2cc(C(=O)Nc3cc4cc(-c5cnn(C)c5)ccc4cn3)ccn2)CC1	31

* * *

# Tested on: 422866-222-R5-J1-PDC spheroid viability
# procedureText: Anticancer human tumor 422866-222-R5-J1-PDC cell line growth inhibition [CLK];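 also: spheroids exposed to agents for seven days before readout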
# protocolConditions: second compound 0.316 µM; first compound 1 µM; stronger effect = lower value; spheroids with HUVEC and MSC
# Text: A high-throughput screen of multi-cell type tumor spheroids was designed to identify active combinations of […] and targeted small molecules. Complex spheroids include a stromal component modeled by human endothelial cells (HUVEC) and fibroblasts modeled by human mesenchymal stem cells (MSCs). […] Compounds. […] If the clinical Cmax for an agent had not been determined, the highest concentration tested was 10 microM. […]
Hi! Just check whether viability, T/C is below 40%. Below gives True, equal or above gives False.

molecule	assignedCategory
CC(=O)O[C@H]1C(=O)[C@@]2(C)[C@H]([C@H](OC(=O)c3ccccc3)[C@]3(O)C[C@H](OC(=O)[C@H](O)[C@@H](NC(=O)c4ccccc4)c4ccccc4)C(C)=C1C3(C)C)[C@]1(OC(C)=O)CO[C@@H]1C[C@@H]2O + CN1CCN(c2cc(C(=O)Nc3cc4cc(-c5cnn(C)c5)ccc4cn3)ccn2)CC1	False
COc1c(OCCCN2CCOCC2)ccc2c3n(c(=NC(=O)c4cnc(N)nc4)nc12)CCN3 + CN1CCN(c2cc(C(=O)Nc3cc4cc(-c5cnn(C)c5)ccc4cn3)ccn2)CC1	True
COc1c(OCCCN2CCOCC2)ccc2c3n(c(=NC(=O)c4cnc(N)nc4)nc12)CCN3 + CNC(=O)c1ccc(Nc2nc(OC3CCCC3)c3c(-c4ccc5nc(C)oc5c4)c[nH]c3n2)c(OC)c1	True
Nc1ccn(C2OC(CO)C(O)C2(F)F)c(=O)n1 (stereo not given) + CN1CCN(c2cc(C(=O)Nc3cc4cc(-c5cnn(C)c5)ccc4cn3)ccn2)CC1	False

* * *

# Tested on: 422866-222-R5-J1-PDC spheroid viability
# procedureText: Anticancer human tumor 422866-222-R5-J1-PDC cell line growth inhibition [CLK];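 also: spheroids exposed to agents for seven days before readout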
# protocolConditions: curve of first compound; second compound 3.16 µM; spheroids with HUVEC and MSC

molecule	IC50
CC(Nc1ccc2c(c1)OCCn1cc(N3C(=O)OCC3C(F)F)nc1-2)C(N)=O (stereo not given) + CNC(=O)c1ccc(Nc2nc(OC3CCCC3)c3c(-c4ccc5nc(C)oc5c4)c[nH]c3n2)c(OC)c1	32 nM
COC1C=CCC(C)C(C)S(=O)(=O)NC(=O)c2ccc3c(c2)N(CC2CCC21)CC1(CCCc2cc(Cl)ccc21)CO3 (stereo not given) + CN1CCN(c2cc(C(=O)Nc3cc4cc(-c5cnn(C)c5)ccc4cn3)ccn2)CC1	< 31.6 nM
Nc1ccn(C2OC(CO)C(O)C2(F)F)c(=O)n1 (stereo not given) + CNC(=O)c1ccc(Nc2nc(OC3CCCC3)c3c(-c4ccc5nc(C)oc5c4)c[nH]c3n2)c(OC)c1	158 nM
CC1(C)CCC(CN2CCN(c3ccc(C(=O)NS(=O)(=O)c4ccc(NCC5CCOCC5)c([N+](=O)[O-])c4)c(Oc4cnc5[nH]ccc5c4)c3)CC2)=C(c2ccc(Cl)cc2)C1 + CN1CCN(c2cc(C(=O)Nc3cc4cc(-c5cnn(C)c5)ccc4cn3)ccn2)CC1	< 31.6 nM
C#Cc1c(F)ccc2cc(O)cc(-c3ncc4c(N5CC6CCC(C5)N6)nc(OCC56CCCN5CC(F)C6)nc4c3F)c12 (stereo not given) + CN1CCN(c2cc(C(=O)Nc3cc4cc(-c5cnn(C)c5)ccc4cn3)ccn2)CC1	< 31.6 nM
COc1ccc([C@@H](O)c2cc(-c3ncnc4cc(N5CCOCC5)ccc34)c(F)cc2Cl)nn1 + CNC(=O)c1ccc(Nc2nc(OC3CCCC3)c3c(-c4ccc5nc(C)oc5c4)c[nH]c3n2)c(OC)c1	548 nM
COc1cccc2c1C(=O)c1c(O)c3c(c(O)c1C2=O)CC(O)(C(=O)CO)CC3OC1CC(N)C(O)C(C)O1 (stereo not given) + CN1CCN(c2cc(C(=O)Nc3cc4cc(-c5cnn(C)c5)ccc4cn3)ccn2)CC1	< 31.6 nM
CC(Nc1ccc2c(c1)OCCn1cc(N3C(=O)OCC3C(F)F)nc1-2)C(N)=O (stereo not given) + CN1CCN(c2cc(C(=O)Nc3cc4cc(-c5cnn(C)c5)ccc4cn3)ccn2)CC1	< 31.6 nM
Nc1ccccc1NC(=O)c1ccc(CNC(=O)OCc2cccnc2)cc1 + CN1CCN(c2cc(C(=O)Nc3cc4cc(-c5cnn(C)c5)ccc4cn3)ccn2)CC1	< 31.6 nM
CC(=O)O[C@H]1C(=O)[C@@]2(C)[C@H]([C@H](OC(=O)c3ccccc3)[C@]3(O)C[C@H](OC(=O)[C@H](O)[C@@H](NC(=O)c4ccccc4)c4ccccc4)C(C)=C1C3(C)C)[C@]1(OC(C)=O)CO[C@@H]1C[C@@H]2O + CNC(=O)c1ccc(Nc2nc(OC3CCCC3)c3c(-c4ccc5nc(C)oc5c4)c[nH]c3n2)c(OC)c1	> 10000 nM

* * *

// pIC50 lookup, one value per entry
# System: 422866-222-R5-J1-PDC spheroid viability
# procedureText: Anticancer human tumor 422866-222-R5-J1-PDC cell line growth inhibition [CLK];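 also: spheroids exposed to agents for seven days before readout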
# protocolConditions: curve of first compound; second compound 3.16 µM; spheroids with HUVEC and MSC
pIC50: −log10 of the molar value.

molecule	relationalOperator	pIC50
COc1ccc([C@@H](O)c2cc(-c3ncnc4cc(N5CCOCC5)ccc34)c(F)cc2Cl)nn1 + CN1CCN(c2cc(C(=O)Nc3cc4cc(-c5cnn(C)c5)ccc4cn3)ccn2)CC1	>	7.50
CC(C)CC(NC(=O)C(Cc1ccccc1)NC(=O)c1cnccn1)B(O)O (stereo not drawn) + CNC(=O)c1ccc(Nc2nc(OC3CCCC3)c3c(-c4ccc5nc(C)oc5c4)c[nH]c3n2)c(OC)c1	=	8.37
CC1COCCN1c1cc(C2(S(C)(=N)=O)CC2)nc(-c2ccnc3[nH]ccc23)n1 (stereo not drawn) + CNC(=O)c1ccc(Nc2nc(OC3CCCC3)c3c(-c4ccc5nc(C)oc5c4)c[nH]c3n2)c(OC)c1	=	6.01
